- Assay Procedure: Solid state (thermolytic) stability of TBR-760 salt forms, open container, UPLC peak purity and appearance
- Type: physicochemical
- Condition Info: 25° C. at 60% RH, open container, 4 wk
- Description: […] The stability of each salt form was assessed by monitoring the post-exposure drug peak purity and by evaluating the post-exposure visual appearance of the salt. […]
Where a name gives a salt, the structure may show the parent alone.
Measured Endpoint: Appearance, T = 4 wk

>>> data_value("CCCN1C[C@H](CSCC(=O)NCCCC[C@@H](NC(=O)CSC[C@@H]2C[C@@H]3c4cccc5[nH]cc(c45)C[C@H]3N(CCC)C2)C(=O)N[C@H]2CSSC[C@@H](C(=O)N[C@H](C(N)=O)[C@@H](C)O)NC(=O)[C@H](CC)NC(=O)[C@H](CCCCN)NC(=O)[C@@H](Cc3c[nH]c4ccccc34)NC(=O)[C@H](Cc3ccc(O)cc3)NC2=O)C[C@@H]2c3cccc4[nH]cc(c34)C[C@H]21 [TBR-760 tosylate]")
"White"
